Every entry's value here was drawn from ChEMBL document CHEMBL4311942.

Below, each entry is listed with its recorded selectivity ratio.
# Assay summary: Therapeutic index, ratio of MHC for human RBC to geometric mean of peptide MIC for Escherichia coli ATCC 25922
# Format: toxicity
# Test conditions: pooled result: one value given for 6 cell lines, strains, targets or settings, read-out: TI
Where a SMILES comes first, the peptide text is derived from it.
Just the number, please, no unit after it.

CC(C)C[C@H](NC(=O)[C@H](CCCCN)NC(=O)[C@H](Cc1c[nH]c2ccccc12)NC(=O)[C@H](CCCCN)NC(=O)[C@H](CC(C)C)NC(=O)[C@H](CCCCN)NC(=O)[C@H](Cc1c[nH]c2ccccc12)NC(=O)[C@H](CCCCN)NC(=O)[C@H](CC(C)C)NC(=O)[C@H](CCCCN)NC(=O)[C@@H](N)Cc1c[nH]c2ccccc12)C(=O)N[C@@H](CCCCN)C(N)=O (H-WKLKWKLKWKLK-NH2) = 50.8

Turning now to a further compound:
[in] Would you kindly share the measured selectivity ratio for CC[C@H](C)[C@H](NC(=O)[C@H](CCCNC(=N)N)NC(=O)[C@H](Cc1c[nH]c2ccccc12)NC(=O)[C@H](CCCNC(=N)N)NC(=O)[C@@H](NC(=O)[C@H](CCCCN)NC(=O)[C@H](Cc1c[nH]c2ccccc12)NC(=O)[C@H](CCCNC(=N)N)NC(=O)[C@@H](NC(=O)[C@H](CCCNC(=N)N)NC(=O)[C@@H](N)Cc1c[nH]c2ccccc12)[C@@H](C)CC)[C@@H](C)O)C(=O)N[C@@H](CCCCN)C(N)=O (H-WRIRWKTRWRIK-NH2) ?
[out] 114
